This collection of values is drawn from PubChem BioAssay (NCATS).

Assay Summary: AP1 Signaling Pathway (AID 357);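 further: ME-180 reporter cells stimulated with EGF at its EC50 level; on the % scale 0 is the no-effect control and ±100 the full control effect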
Measurement Conditions: ME-180 AP-1-bla reporter, EGF-induced, beta-lactamase ratio, 5 h; at 7.69 µM (top of the series) unless noted
Results filed as inconclusive are left out. Calls of active or inactive are those of the source. The call rests on the fitted dose curve; in most records, active means well fitted curve in either direction with a large enough effect (not every such curve was filed as active); inconclusive means small, poorly fitted or top-dose-only effect, or another doubt; inactive means flat fitted curve, though single readings scatter.
Quantity: activity change, negative = inhibition

Documented activity change, negative = inhibition of Cc1noc(C)c1-c1cncnc1Nc1ccccc1 : 13.6% (inactive)

Documented activity change, negative = inhibition of COCC(=O)N1CCC[C@@]2(CCN(Cc3nccs3)C2)C1 : -2.92% (inactive)

Documented activity change, negative = inhibition of Cn1cccc1C(=O)N1CCC2(CC1)CN(c1cccc(-c3ccccc3)c1)C2 : -14% (inactive)

Documented activity change, negative = inhibition of COc1ccc(-n2c(=O)c(-c3cn(C)c4ccccc34)nc3cnc(N4CCNCC4)nc32)cc1 : 26.2% (inactive)

Documented activity change, negative = inhibition of N#Cc1cccc(NC(=O)N2CCCC3(CCN(C(=O)c4cnccn4)CC3)C2)c1 : -1.03% (inactive)

Documented activity change, negative = inhibition of COCCn1c(=O)c(-c2ccc(F)cc2)nc2cnc(Oc3ccc(OC)cc3)nc21 : -14.8% (inactive)

Documented activity change, negative = inhibition of CCNc1ncc2nc(-c3ccccc3)c(=O)n(CCOC)c2n1 : 22.2% (inactive)

Documented activity change, negative = inhibition of O=S(=O)(c1ccccc1)N1CCC2(CC1)CN(c1ccncc1)C2 : 0.671% (inactive)

Documented activity change, negative = inhibition of COc1ccc(NC(=O)N2CCC3(CC2)CCN(C(=O)c2cccc(F)c2)CC3)cc1 : -4.05% (inactive)

Documented activity change, negative = inhibition of O=c1c(-c2cccc(F)c2)nc2cncnc2n1Cc1ccccc1Cl : -4.26% (inactive)

---

Assay Summary: Stat Signaling Pathway (AID 446);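 further: ME-180 cervical cancer cells given 40 pM IL-6 alongside compound; SIE-controlled beta-lactamase reporter measured as 460/530 nm FRET emission ratio; on the % scale 0 is the no-effect control and ±100 the full control effect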
Measurement Conditions: ME-180 (cervical carcinoma) SIE beta-lactamase reporter, IL-6 stimulated, 5 h; at 7.69 µM (top of the series) unless noted
Inconclusive results are not listed. Calls of active or inactive are those of the source. Calls follow the shape of the dose curve; as a rule, active = well fitted curve in either direction with a large enough effect (not every such curve was filed as active); inconclusive = small, poorly fitted or top-dose-only effect, or another doubt; inactive = flat fitted curve, though single readings scatter.
Quantity: activity, negative = inhibition

Documented activity, negative = inhibition of COc1ccc2[nH]cc(CCNc3cc(-c4ccccc4CN(C)C)ncn3)c2c1 : 6.88% (inactive)

Documented activity, negative = inhibition of CCC[C@H]1C(=O)N2C(N(C)C)=Nc3ccc(C)cc3N2C1=O : -9.03% [at 17.2 µM] (inactive)

Documented activity, negative = inhibition of CS(=O)(=O)N1CCC2(CC1)CN(c1ncccn1)C2 : 6.56% (inactive)

Documented activity, negative = inhibition of CC(C)CN1CCC2(CC1)CCN(C(=O)c1ccco1)CC2 : -2.71% (inactive)

Documented activity, negative = inhibition of Cc1ccccc1-c1cc(N(C)Cc2ccco2)ncn1 : 8.71% (inactive)

Documented activity, negative = inhibition of O=C(c1ccncc1)N1CCC[C@@]2(CCN(Cc3ccccc3)C2)C1 : 7.78% (inactive)

Documented activity, negative = inhibition of COc1cccc(-c2cc(NCc3cccnc3)ncn2)c1 : -7.08% (inactive)

Documented activity, negative = inhibition of CS(=O)(=O)N1CCC2(CCN(c3ccncc3)CC2)CC1 : 0.543% (inactive)

Documented activity, negative = inhibition of COCCn1c(=O)c(-c2cn(C)c3ccccc23)nc2cnc(OCc3ccccc3)nc21 : 23.6% (inactive)

Documented activity, negative = inhibition of COc1ccc(Oc2ncc3ncc(=O)n(CCC#N)c3n2)cc1 : -8.02% (inactive)

Documented activity, negative = inhibition of N[C@H](Cn1ccc(=O)c(O)c1)C(=O)O : 3.76% [at 17.2 µM] (inactive)

Documented activity, negative = inhibition of COc1ccc(C(=O)N2CCC3(CC2)CCN(c2ccncc2)CC3)cc1 : 5.85% (inactive)

Documented activity, negative = inhibition of C[C@@](N)(Cc1ccc(O)cc1)C(=O)O : 3.69% [at 38 µM] (inactive)

Documented activity, negative = inhibition of CC(C)NC[C@H](O)c1cc(O)cc(O)c1 : 14.6% [at 17.2 µM] (inactive)

Documented activity, negative = inhibition of CS(=O)(=O)N1CCC2(CCN(c3ccccn3)CC2)CC1 : -2.94% (inactive)

Documented activity, negative = inhibition of COc1ccc(-c2nc3cnc(OC)nc3n(-c3ccccc3)c2=O)cc1 : -1.78% (inactive)

Documented activity, negative = inhibition of COc1ccc(-c2nc3cncnc3n(-c3ccccc3)c2=O)cc1 : -2.81% (inactive)

Documented activity, negative = inhibition of CN(C)C(=O)c1ccc(-c2ccc3ncnc(N4CCNCC4)c3c2)cc1 : -3.14% (inactive)

Documented activity, negative = inhibition of COCCn1c(=O)cnc2cnc(OCc3ccccc3)nc21 : 3.06% (inactive)

Documented activity, negative = inhibition of CN(C)c1ccc(-c2cncnc2Nc2ccccc2)cc1 : -12% (inactive)

Documented activity, negative = inhibition of COCCn1c(=O)c(CCc2ccccc2)nc2cnc(N3CCOCC3)nc21 : -3.32% (inactive)

Documented activity, negative = inhibition of COc1ccc(CNc2ccnc(-c3cccc(NS(C)(=O)=O)c3)n2)c(OC)c1 : -1.05% (inactive)

Documented activity, negative = inhibition of O=c1c(-c2ccccc2)nc2cncnc2n1-c1ccccc1 : 0.883% (inactive)

Documented activity, negative = inhibition of O=S(=O)(c1ccccc1)N1CCC2(CCN(Cc3ccccc3)CC2)CC1 : 1.04% (inactive)

Documented activity, negative = inhibition of COc1ccccc1CNc1ccnc(-c2ccccc2OC)n1 : 9.83% (inactive)

Documented activity, negative = inhibition of CC1(C)O[C@@H]2C[C@H]3[C@H]4C[C@H](F)C5=CC(=O)C=C[C@@]5(C)[C@@H]4[C@H](O)C[C@]3(C)[C@]2(C(=O)CO)O1 : -5.69% [at 17.2 µM] (inactive)

Documented activity, negative = inhibition of FC(F)(F)c1ccccc1-c1cncnc1-n1ccnc1 : 3.29% (inactive)

Documented activity, negative = inhibition of CNc1ccnc(-c2cccc(NS(C)(=O)=O)c2)n1 : -1.8% (inactive)

Documented activity, negative = inhibition of Cn1c(=O)c(-c2ccc(F)c(F)c2)nc2cncnc21 : -7.37% (inactive)

Documented activity, negative = inhibition of CN(C)C(=O)c1ccc(-c2ccc3ncnc(N(C)Cc4ccco4)c3c2)cc1 : -9.98% (inactive)

Documented activity, negative = inhibition of CC(C)CN1CCCC2(CCN(C(=O)c3cccn3C)CC2)C1 : 12.4% (inactive)

Documented activity, negative = inhibition of Cc1cnc(CNc2ncnc3ccc(-c4ccccc4C(F)(F)F)cc23)cn1 : -29.2% (inactive)

Documented activity, negative = inhibition of Cn1cccc1C(=O)N1CCC2(CCN(Cc3ccccc3)CC2)CC1 : 4.92% (inactive)

Documented activity, negative = inhibition of O=C(Oc1ccccc1)N1CCC2(CCCN(c3cccc(-c4ccccc4)c3)C2)CC1 : 2.68% (inactive)

Documented activity, negative = inhibition of COc1cccc(Nc2ncc3nc(-c4ccccc4)c(=O)n(C)c3n2)c1 : 4.13% (inactive)

Documented activity, negative = inhibition of Cc1ccccc1-c1cncnc1Nc1ccccc1 : 16% (inactive)

Documented activity, negative = inhibition of O=C(c1ccncc1)N1CCC2(CC1)CN(c1ccncc1)C2 : 1.34% (inactive)

Documented activity, negative = inhibition of COc1ccc(NC(=O)N2CC3(CCN(S(=O)(=O)c4ccccc4)CC3)C2)cc1 : -2.28% (inactive)

Documented activity, negative = inhibition of COC(=O)N1CCC2(CC1)CN(C(=O)Nc1ccc(OC)cc1)C2 : -0.967% (inactive)

Documented activity, negative = inhibition of O=C(Oc1ccccc1)N1CCC[C@@]2(CCN(c3ccccn3)C2)C1 : 9.87% (inactive)

Documented activity, negative = inhibition of COc1cccc(Cn2c(=O)c(CCc3ccccc3)nc3cnc(N4CCOCC4)nc32)c1 : -8.53% (inactive)

Documented activity, negative = inhibition of N#Cc1ccc(CN2CCC3(CC2)CCN(C(=O)c2csnn2)CC3)cc1 : -1.95% (inactive)

Documented activity, negative = inhibition of COc1ccc(NC(=O)N2CCCC3(CCN(C(=O)c4ccncc4)CC3)C2)cc1 : -2.92% (inactive)

Documented activity, negative = inhibition of COc1ncc2nc(-c3cn(C)c4ccccc34)c(=O)n(Cc3ccc(F)cc3)c2n1 : 20.2% (inactive)

Documented activity, negative = inhibition of CC(C)CN1CC2(CCN(C(=O)c3ccco3)CC2)C1 : -3.41% (inactive)

---

Assay Summary: NFAT Signaling Pathway (AID 444);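 further: carbachol stimulus at about its EC50 of 1 µM final; on the % scale 0 is the no-effect control and ±100 the full control effect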
Measurement Conditions: Jurkat NFAT-bla M1, carbachol, beta-lactamase ratio, 5 h; at 7.69 µM (top of the series) unless noted
Inconclusive results are not listed.
Quantity: activity change, negative = inhibition (%)
Give just the numeric value; % need not be written.

Documented activity change, negative = inhibition of COc1ccc(Oc2ncc3nc(C)c(=O)n(C)c3n2)cc1 : -1.39

Documented activity change, negative = inhibition of CCNc1ncc2nc(-c3cccc(C#N)c3)c(=O)n(CCC#N)c2n1 : -1.23

Documented activity change, negative = inhibition of COc1ccc(C(=O)N2CCC3(CCN(Cc4nccs4)CC3)CC2)cc1 : -8.01

Documented activity change, negative = inhibition of CC(=O)N1CCC2(CC1)CN(C(=O)Nc1cccc(C#N)c1)C2 : 4.7

Documented activity change, negative = inhibition of N#Cc1cccc(-c2ccc3ncnc(NCc4cccnc4)c3c2)c1 : 21.6

Documented activity change, negative = inhibition of O=C(c1cccc(F)c1)N1CCC2(CCCN(c3cccc(-c4ccccc4)c3)C2)CC1 : -6.68

Documented activity change, negative = inhibition of Cn1cccc1C(=O)N1CCC2(CCCN(C(=O)Nc3ccccc3)C2)CC1 : -22.5

Documented activity change, negative = inhibition of COc1ccccc1CNc1ccnc(-c2cccc(C#N)c2)n1 : 8.07

Documented activity change, negative = inhibition of CS(=O)(=O)N1CCC2(CC1)CN(C(c1ccccc1)c1ccccc1)C2 : -0.932

Documented activity change, negative = inhibition of O=C(Nc1cccc(F)c1)N1CC[C@@]2(CCCN(C(=O)c3csnn3)C2)C1 : 20.4

Documented activity change, negative = inhibition of c1ccc(CNc2ncnc3ccc(-c4ccoc4)cc23)cc1 : 11.4
